This collection of values is drawn from the supplement of paper PMC12645437.

Exercise: state measured log2 fold change of degron read counts for each of the sequences provided.
# System under test: T1, CRBN, Q96SW2;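 note: pooled lentiviral library of zinc finger degron-EGFP fusions in mCherry-positive Jurkat cells, FACS-sorted after compound exposure, with degron abundance counted by next-generation sequencing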
# T1 chain: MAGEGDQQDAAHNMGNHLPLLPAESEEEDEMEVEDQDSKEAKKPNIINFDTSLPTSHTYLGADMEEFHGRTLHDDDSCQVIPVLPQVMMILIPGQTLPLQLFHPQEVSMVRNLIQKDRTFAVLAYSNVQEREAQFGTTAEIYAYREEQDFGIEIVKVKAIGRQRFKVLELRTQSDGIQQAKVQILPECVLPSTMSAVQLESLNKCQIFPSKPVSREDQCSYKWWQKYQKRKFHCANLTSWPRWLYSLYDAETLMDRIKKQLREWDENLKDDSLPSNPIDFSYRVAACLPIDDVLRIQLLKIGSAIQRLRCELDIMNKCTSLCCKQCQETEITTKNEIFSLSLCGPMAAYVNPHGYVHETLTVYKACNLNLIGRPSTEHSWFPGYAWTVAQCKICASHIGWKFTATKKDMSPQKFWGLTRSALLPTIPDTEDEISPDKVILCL
# Protocol notes: log2 fold change of degron read counts, EGFP-low vs EGFP+ sorted cells (limma voom), compound-induced degradation; higher = more compound-induced degradation of the degron-EGFP fusion; degrons are variants of IKZF1/3 zinc finger 2; compound dose not given here
# Measurement conditions: Jurkat; 18 h; compound: compound 33 (diphenyl IMiD analogue)
The full ranking holds about 8,300 sequences; the median of “log2 fold change of degron read counts, EGFP-low vs EGFP+ sorted cells (limma voom), compound-induced degradation” is about -1.1, and the highest 2% start at about 3.2. Many of the other results were omitted from the sample, so the highest values are more common in it than they were.
Answers are plain numbers.

Okay, here is my list. What is log2 fold change of degron read counts for each of these?
1. LKCPICGFACTQKGNLLRHIKL [46L_47K_49P_50I_52G_53F_54A_55C_67L_, Q9UKT9]
2. LYCPICGFSCTQKGNLLRHIKL [46L_47Y_49P_50I_52G_53F_54S_55C_67L_, Q9UKT9]
3. LRCPICGFACTQKGNLLRHIKL [46L_47R_49P_50I_52G_53F_54A_55C_67L_, Q9UKT9]

stdout:
1: -0.872; 2: 3.09; 3: 2.39
